Just for reference, ChEMBL document CHEMBL1130489 is where these values come from.

- Test system: MT4
- PROCEDURE_TEXT: Concentration required to protect MT-4 cells against the cytopathogenicity of HIV-1 (IIIB/LAI)
- Type: functional, cell-based
- PARTICULARS: Homo sapiens
pEC50: −log10 of the molar value.
Reported values of pEC50 for individual entries
MEASURED_ATTRIBUTE: pEC50

compound="CN1CCCCC1C12CC3CC(CC(C3)C1)C2 (centres undefined)" measured_attribute=pEC50 result="< 3.38"
compound="S=C(Nc1ccc(Cl)cc1Cl)N1CCCCC1C12CC3CC(CC(C3)C1)C2 (centres undefined)" measured_attribute=pEC50 result="< 4.72"
compound="c1ccc(CN2CCCCC2C23CC4CC(CC(C4)C2)C3)cc1 (centres undefined)" measured_attribute=pEC50 result="< 4.19"
compound="CCN1CCCCC1C12CC3CC(CC(C3)C1)C2 (centres undefined)" measured_attribute=pEC50 result="< 3.38"
compound="O=C(Nc1ccc(Cl)cc1)N1CCCCC1C12CC3CC(CC(C3)C1)C2 (centres undefined)" measured_attribute=pEC50 result="< 4.89"
compound="C1CCC(C23CC4CC(CC(C4)C2)C3)NC1 (centres undefined)" measured_attribute=pEC50 result="< 3.39"
compound="CN(C)CCN1CCCCC1C12CC3CC(CC(C3)C1)C2 (centres undefined)" measured_attribute=pEC50 result=4.39
compound="C1CCN(CC2CC2)C(C23CC4CC(CC(C4)C2)C3)C1 (centres undefined)" measured_attribute=pEC50 result=4.12
compound="C1CCN(CCN2CCCCC2C23CC4CC(CC(C4)C2)C3)CC1 (centres undefined)" measured_attribute=pEC50 result=5.44
